- measured.target: human OX1R (Homo sapiens, UniProt O43613)
- Construct: expressed in transfected cells; host or cells: CHO (Chinese hamster ovary) cells, line CHOOX1R, co-expressing NFAT-luciferase
- Sequence (O43613 whole entry): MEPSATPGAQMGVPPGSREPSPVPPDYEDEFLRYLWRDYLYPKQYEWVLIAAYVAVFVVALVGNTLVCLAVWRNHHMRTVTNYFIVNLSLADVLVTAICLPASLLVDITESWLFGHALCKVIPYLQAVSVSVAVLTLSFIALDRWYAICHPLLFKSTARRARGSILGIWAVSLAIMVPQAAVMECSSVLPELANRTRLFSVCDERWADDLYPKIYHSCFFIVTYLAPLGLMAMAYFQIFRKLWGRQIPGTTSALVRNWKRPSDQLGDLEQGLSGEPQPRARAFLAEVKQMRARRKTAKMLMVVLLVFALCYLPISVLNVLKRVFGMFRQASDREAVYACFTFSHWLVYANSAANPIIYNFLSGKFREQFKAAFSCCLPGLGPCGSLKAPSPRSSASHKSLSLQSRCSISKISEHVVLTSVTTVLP
- experiment.description: Agonist activity against OX1R: intracellular calcium (Fura-2AM, FDSS7000) in CHOOX1R cells
- Type: cell-based
- condition.context: 0.1 μM test compound; relative to orexin-A as full agonist (100%)

given.smiles | limit.qualifier | Response (%) OX1R
COc1ccc(-c2cccc(C(=O)N(C)C)c2)cc1S(=O)(=O)Nc1cccc(NC(=O)Nc2ccncc2)c1 | = | 6
COc1ccc(-c2cccc(C(=O)N(C)C)c2)cc1S(=O)(=O)Nc1cccc(NC(=O)c2cccc(N(C)C)c2)c1 | = | 6
COc1ccc(-c2cccc(C(=O)N(C)C)c2)cc1S(=O)(=O)Nc1cccc(NC(=O)c2ccccc2Br)c1 | = | 13
COc1ccc(-c2cccc(C(=O)N(C)C)c2)cc1S(=O)(=O)Nc1cccc(NC(=O)Nc2cccc([N+](=O)[O-])c2)c1 | < | 5
